Measured Percent Inhibition by item
target-desc: recombinant human SAE enzyme (Homo sapiens (Human))
assay-details: SAE HTRF enzyme assay
Format: biochemical
measurement-context: Concentration 0.111 μM
readout-label: Percent Inhibition

- NS(=O)(=O)OC[C@H]1C[C@@H](Nc2ncncc2C(=O)c2cc(C3NCCc4ccc(Cl)cc43)cs2)C[C@@H]1O (single isomer, unassigned) [I-274b]: 81
- CN(C)[C@H](c1cccc(Cl)c1)c1csc(C(=O)c2cncnc2N[C@@H]2C[C@H](COS(N)(=O)=O)[C@@H](O)C2)c1 (single isomer, unassigned) [I-153a]: 30
- CC(O)(c1cccc(Cl)c1)c1ccc(C(=O)c2cncnc2NC2CC(O)C(COS(N)(=O)=O)C2)s1 (mixture of isomers) [I-152]: 93
- NS(=O)(=O)OC[C@H]1C[C@@H](Nc2ncncc2C(=O)c2cc([C@@]3(c4cccc(Cl)c4)CCCN3)cs2)C[C@@H]1O (single isomer, unassigned) [I-38a]: 75
- NS(=O)(=O)OC[C@H]1C[C@@H](Nc2ncncc2C(=O)c2cc(C(O)c3cccc(Cl)n3)cs2)C[C@@H]1O (single isomer, unassigned) [I-29a]: 97
- C[C@@](O)(c1ccccc1)c1coc(C(=O)c2cncnc2N[C@@H]2C[C@H](COS(N)(=O)=O)[C@@H](O)C2)c1.C[C@](O)(c1ccccc1)c1coc(C(=O)c2cncnc2N[C@@H]2C[C@H](COS(N)(=O)=O)[C@@H](O)C2)c1 (mixture of isomers) [I-58]: 96
- N[C@@H](c1cccc(Br)n1)c1cc(C(=O)c2cncnc2N[C@@H]2C[C@H](COS(N)(=O)=O)[C@@H](O)[C@H]2O)sc1Cl (single isomer, unassigned) [I-10a]: 100
- CC(O)(c1cccc(Br)c1)c1csc(C(=O)c2cncnc2N[C@@H]2C[C@H](COS(N)(=O)=O)[C@@H](O)C2)c1 (single isomer, unassigned) [I-3b]: 100
- NS(=O)(=O)OC[C@H]1C[C@@H](Nc2ncncc2C(=O)c2cc([C@H](O)c3cc(Br)ccc3F)cs2)C[C@@H]1O (single isomer, unassigned) [I-19a]: 98
- NS(=O)(=O)OC[C@H]1C[C@@H](Nc2ncncc2C(=O)c2cc([C@@H]3OCCc4ccc(Br)cc43)cs2)C[C@@H]1O.NS(=O)(=O)OC[C@H]1C[C@@H](Nc2ncncc2C(=O)c2cc([C@H]3OCCc4ccc(Br)cc43)cs2)C[C@@H]1O (mixture of isomers) [I-268]: 100
- N[C@@H](c1cccc(Cl)c1)c1cc(C(=O)c2cncnc2N[C@@H]2C[C@H](COS(N)(=O)=O)[C@@H](O)[C@H]2O)sc1Cl (single isomer, unassigned) [I-14b]: 95
- NS(=O)(=O)OC[C@H]1C[C@@H](Nc2ncncc2C(=O)c2cc([C@@H]3NCc4ccc(Cl)cc43)c(Cl)s2)C[C@@H]1O (single isomer, unassigned) [I-262a]: 98
- CN[C@H](c1cccc(Cl)c1)c1csc(C(=O)c2cncnc2N[C@@H]2C[C@H](COS(N)(=O)=O)[C@@H](O)C2)c1 (mixture of isomers) [I-47]: 97
- Cc1sc(C(=O)c2cncnc2N[C@@H]2C[C@H](COS(N)(=O)=O)[C@@H](O)C2)cc1[C@H]1OCC(F)(F)c2ccc(Cl)nc21 (single isomer, unassigned) [I-260a]: 99
- NS(=O)(=O)OC[C@H]1C[C@@H](Nc2ncncc2C(=O)c2cc([C@@H]3NCCc4ccc(Br)cc43)c(Cl)s2)[C@H](O)[C@@H]1O (mixture of isomers) [I-259]: 99
- Cc1sc(C(=O)c2cncnc2N[C@@H]2C[C@H](COS(N)(=O)=O)[C@@H](O)C2)cc1[C@H](N)c1cccc(Cl)c1 (single isomer, unassigned) [I-6a]: 98
- CC(c1cccc(Cl)c1)c1csc(C(=O)c2cncnc2N[C@@H]2C[C@H](COS(N)(=O)=O)[C@@H](O)C2)c1 (single isomer, unassigned) [I-117b]: 97
- C[C@](N)(c1cccc(Cl)c1)c1csc(C(=O)c2cncnc2N[C@@H]2C[C@H](COS(N)(=O)=O)[C@@H](O)C2)c1 (single isomer, unassigned) [I-12a]: 84
- NS(=O)(=O)OC[C@H]1C[C@@H](Nc2ncncc2C(=O)c2cc(C3NCCc4ccc(Cl)cc43)c(Cl)s2)C[C@@H]1O (single isomer, unassigned) [I-255a]: 93
- Cc1sc(C(=O)c2cncnc2N[C@@H]2C[C@H](COS(N)(=O)=O)[C@@H](O)C2)cc1[S@+]([O-])c1cccc(Cl)c1 (single isomer, unassigned) [I-28b]: 100
- NS(=O)(=O)OC[C@H]1C[C@@H](Nc2ncncc2C(=O)c2cc([C@@]3(c4cccc(Cl)c4)CCCN3)cs2)C[C@@H]1O (single isomer, unassigned) [I-38b]: 98

---

Known inhibition at 0.111 µM of a selection of compounds
target-desc: recombinant human SAE enzyme (Homo sapiens (Human), UniProt Q9UBT2)
Sequence (Q9UBT2 whole entry): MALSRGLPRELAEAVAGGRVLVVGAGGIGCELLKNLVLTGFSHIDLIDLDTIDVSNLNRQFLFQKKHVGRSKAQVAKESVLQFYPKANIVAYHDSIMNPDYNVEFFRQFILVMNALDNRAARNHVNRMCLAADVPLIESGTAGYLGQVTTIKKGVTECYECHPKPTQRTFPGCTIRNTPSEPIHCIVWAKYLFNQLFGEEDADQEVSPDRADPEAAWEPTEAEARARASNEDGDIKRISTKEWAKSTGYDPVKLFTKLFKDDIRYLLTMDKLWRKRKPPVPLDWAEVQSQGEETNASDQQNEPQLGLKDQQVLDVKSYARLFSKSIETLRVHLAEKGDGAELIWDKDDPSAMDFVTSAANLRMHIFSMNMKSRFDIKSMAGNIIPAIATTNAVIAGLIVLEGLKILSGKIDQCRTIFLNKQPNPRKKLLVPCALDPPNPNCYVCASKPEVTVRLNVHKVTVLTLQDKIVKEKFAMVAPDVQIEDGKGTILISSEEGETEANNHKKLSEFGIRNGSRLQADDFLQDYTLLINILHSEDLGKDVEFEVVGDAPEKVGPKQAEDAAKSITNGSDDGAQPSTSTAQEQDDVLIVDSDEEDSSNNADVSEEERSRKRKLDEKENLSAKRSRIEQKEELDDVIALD
Sequence (Q9UBE0 whole entry partner): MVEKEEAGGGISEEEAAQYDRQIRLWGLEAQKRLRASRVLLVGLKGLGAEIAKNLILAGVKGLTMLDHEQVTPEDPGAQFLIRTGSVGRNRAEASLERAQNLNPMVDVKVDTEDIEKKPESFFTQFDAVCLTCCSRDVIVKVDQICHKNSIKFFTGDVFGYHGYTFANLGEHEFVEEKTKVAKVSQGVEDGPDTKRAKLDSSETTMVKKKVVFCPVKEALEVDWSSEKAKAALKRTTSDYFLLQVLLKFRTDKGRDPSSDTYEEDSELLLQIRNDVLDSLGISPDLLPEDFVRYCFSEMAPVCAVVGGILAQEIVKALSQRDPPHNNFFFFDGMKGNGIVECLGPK
assay-details: SAE HTRF enzyme assay
Format: biochemical
measurement-context: Concentration 0.111 μM; read-out: Percent Inhibition
readout-label: inhibition at 0.111 µM (%)

- Cc1sc(C(=O)c2cncnc2N[C@@H]2C[C@H](COS(N)(=O)=O)[C@@H](O)C2)cc1Cn1cc(Br)cc1C#N [I-148]: 91
- NS(=O)(=O)OC[C@H]1C[C@@H](Nc2ncncc2C(=O)c2cc(Cc3cccc(I)c3)cs2)[C@@H](F)[C@@H]1O [I-99]: 97
- NS(=O)(=O)OC[C@H]1C[C@@H](Nc2ncncc2C(=O)c2cc(Cc3cccc(Br)c3)cs2)[C@@H](F)[C@@H]1O [I-101]: 96
- Cc1sc(C(=O)c2cncnc2N[C@@H]2C[C@H](COS(N)(=O)=O)[C@@H](O)C2)cc1[C@@H]1OCCc2ccc(Cl)cc21 [I-257b]: 99
- NS(=O)(=O)OC[C@H]1C[C@@H](Nc2ncncc2C(=O)c2cc(CCc3cccc(Cl)c3)cs2)C[C@@H]1O [I-146]: 94
- NS(=O)(=O)OC[C@H]1C[C@@H](Nc2ncncc2C(=O)c2ccc(Cc3cccc(Br)c3)o2)C[C@@H]1O [I-82]: 99
- NS(=O)(=O)OC[C@H]1C[C@@H](Nc2ncncc2C(=O)c2cc(Cc3cccc(Cl)c3)c(Br)s2)C[C@@H]1O [I-118]: 97
- NS(=O)(=O)OC[C@H]1C[C@@H](Nc2ncncc2C(=O)c2cc(Cc3cccc(Cl)c3F)cs2)C[C@@H]1O [I-84]: 98
- NS(=O)(=O)OC[C@H]1C[C@@H](Nc2ncncc2C(=O)c2cc(Cc3cncc(Cl)c3)cs2)C[C@@H]1O [I-210]: 50
- NS(=O)(=O)OC[C@H]1C[C@@H](Nc2ncncc2C(=O)c2cc(Cc3cccc(Cl)c3)cs2)C[C@@H]1O [I-43]: 99
- NS(=O)(=O)OC[C@H]1C[C@@H](Nc2ncncc2C(=O)c2cc(Cc3cccc(Br)c3)cs2)C[C@@H]1O [I-59]: 99
- NS(=O)(=O)OC[C@H]1C[C@@H](Nc2ncncc2C(=O)c2cc(CO)c(Cl)s2)C[C@@H]1O [I-211]: 39
- CC(C)c1ccccc1OCc1csc(C(=O)c2cncnc2N[C@@H]2C[C@H](COS(N)(=O)=O)[C@@H](O)C2)c1 [I-191]: 72
- C=C(c1cccc(Br)c1)c1csc(C(=O)c2cncnc2N[C@@H]2C[C@H](COS(N)(=O)=O)[C@@H](O)C2)c1 [I-164]: 92

---

target-desc: recombinant human SAE enzyme (Homo sapiens (Human), UniProt Q9UBT2)
assay-details: SAE HTRF enzyme assay
Type: biochemical
measurement-context: Concentration 0.111 μM
readout-label: Percent Inhibition

- Cc1sc(C(=O)c2cncnc2N[C@@H]2C[C@H](COS(N)(=O)=O)[C@@H](O)[C@H]2O)cc1[C@@H]1OCCc2ccccc21 (single isomer, unassigned) [I-250b]: 98
- Cc1sc(C(=O)c2cncnc2N[C@@H]2C[C@H](COS(N)(=O)=O)[C@@H](O)[C@H]2O)cc1[C@@H]1NCCc2ccc(Br)cc21 (single isomer, unassigned) [I-247b]: 98
- CN1CCC[C@]1(c1cccc(Cl)c1)c1csc(C(=O)c2cncnc2N[C@@H]2C[C@H](COS(N)(=O)=O)[C@@H](O)C2)c1 (mixture of isomers): 23
- Cc1sc(C(=O)c2cncnc2N[C@@H]2C[C@H](COS(N)(=O)=O)[C@@H](O)C2)cc1[C@@H]1OCCc2ccsc21 (single isomer, unassigned) [I-269b]: 95
- CC(O)(c1cccc(Cl)c1)c1coc(C(=O)c2cncnc2NC2CC(O)C(COS(N)(=O)=O)C2)c1 (mixture of isomers): 98

---

Each entry below carries its recorded IC50.
target-desc: recombinant human SAE enzyme (Homo sapiens (Human))
assay-details: SAE HTRF enzyme assay
Type: biochemical
measurement-context: SAE inhibition; class symbols, legend in nM
Method: Example 215: SAE HTRF enzyme assay The SAE enzymatic reaction totals 50 μl and contains 50 mM HEPES Hemisodium (pH 7.5), 0.05% BSA, 5 mM MgCl2, 0.5 μM ATP, 250 μM GSH, 0.01 μM Ubc9-GST, 0.125 μM Sumo-Flag and 0.11 nM recombinant human SAE enzyme. […] After incubation for 2 hours at 24° C., quantification of FRET is performed on the Pherostar™ (BMG Labtech). Percentage inhibition values at a single concentration or enzyme inhibition (IC50) values are determined from those curves. […]
readout-label: IC50

* NS(=O)(=O)OC[C@H]1C[C@@H](Nc2ncncc2C(=O)c2cc([C@@H]3NCCCc4ccccc43)c(Cl)s2)C[C@@H]1O (mixture of isomers) | < 10 nM
* Cc1ccc2c(n1)C(c1cc(C(=O)c3cncnc3N[C@@H]3C[C@H](COS(N)(=O)=O)[C@@H](O)C3)sc1C)OCC2 (single isomer, unassigned) [I-291b] | < 10 nM
* CN1CCc2ccc(Cl)cc2[C@H]1c1csc(C(=O)c2cncnc2N[C@@H]2C[C@H](COS(N)(=O)=O)[C@@H](O)C2)c1 (mixture of isomers) | < 10 nM
